- Test system: IL-12 induced STAT4 phophorylation mediated by Tyk2/JAK2 (heterodimeric complex)
- assay-method-text: IL-12 Induced pSTAT4 in Human PBMC
- Format: cell-based
- run-parameters: 1.7 ng/mL IL-12
pIC50: −log10 of the molar value.
quantity: pIC50

{"columns": ["molecule-smiles", "pIC50"],
 "data": [
  ["CNc1cc(Nc2cccn(C(C)C)c2=O)nc2c(C(=O)N[C@@H]3CC[C@H]3O)cnn12", "> 7.00"],
  ["CNc1cc(Nc2cc(F)cn(-c3ccn(C)n3)c2=O)nc2c(C(=O)N[C@H]3C[C@H]3F)cnn12", "> 7.00"]
]}

# context switch: different compound, same pIC50
What reported pIC50 corresponds to `CNc1cc(Nc2cccn(-c3ncco3)c2=O)nc2c(C(=O)NC3CC3)cnn12` on IL-12 induced STAT4 phophorylation mediated by Tyk2/JAK2 (heterodimeric complex)? > 7.00

====

- Tested on: GM-CSF induced STAT5 phosphorylation mediated by the JAK2/JAK2 homdimeric complex
- assay-method-text: GM-CSF Induced pSTAT5 in Human PBMC
- run-parameters: Homo sapiens, PBMC, 20 min, read-out: PBMC_GMCSF_pSTAT5 IC50, human PBMC; GM-CSF 5 ng/mL for 20 minutes; pSTAT5
Kindly state IC50 for each of the entries shown.

Consider the worked cases shown below.
{"columns": ["compound", "IC50"],
 "data": [
  ["CNc1cc(Nc2cccn(C3CCCOC3)c2=O)nc2c(C(=O)NC3CCC3)cnn12 (racemic)", "> 50 µM"],
  ["CNc1cc(Nc2cc(Cl)cn(-c3ccc(C4CC4)nn3)c2=O)nc2c(C(=O)NC3CC3)cnn12", "> 12.5 µM"],
  ["CNc1cc(Nc2cccn(-c3ccccn3)c2=O)nc2c(C(=O)N[C@H]3CC[C@@H]3O)cnn12", "> 50 µM"],
  ["CNc1cc(Nc2cccc(C3CCCOC3)n2)nc2c(C(=O)N[C@@H]3C[C@@H]3F)cnn12 (stereo partly drawn)", "> 50 µM"],
  ["CNc1cc(Nc2cc(Cl)cn(-c3ccnc(C)n3)c2=O)nc2c(C(=O)N[C@H]3C[C@H]3F)cnn12", "> 2.5 µM"]
]}

Go through the items and report each one's IC50.
1. CNc1cc(Nc2cccc(N3CCCC3=O)n2)nc2c(C(=O)N[C@H]3CC[C@H]3O)cnn12
2. CNc1cc(Nc2cccn(-c3cccnc3)c2=O)nc2c(C(=O)NC3CC3)cnn12
3. CNc1cc(Nc2cccn([C@@H]3CCCOC3)c2=O)nc2c(C(=O)N[C@@H]3C[C@@H]3F)cnn12
4. CNc1cc(Nc2cccc(-c3cnn(C)c3)c2Cl)nc2c(C(N)=O)cnn12
5. CNc1cc(Nc2cccn(-c3cn(C)nc3F)c2=O)nc2c(C(=O)NC3CC3)cnn12
6. CNc1cc(Nc2cccn([C@H]3CC[C@H](OC)CC3)c2=O)nc2c(C(=O)NC3CC3)cnn12

1. > 50 µM
2. > 12.5 µM
3. > 12.5 µM
4. > 2.5 µM
5. > 12.5 µM
6. > 12.5 µM

Enter reported IC50 observed with GM-CSF induced STAT5 phosphorylation mediated by the JAK2/JAK2 homdimeric complex for `CNc1cc(Nc2cc(F)cn(-c3ccccn3)c2=O)nc2c(C(=O)N[C@H]3C[C@H]3F)cnn12` > 12.5 µM
